# Test system: ERK5;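 also: KINOMEscan kinase panel screen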
# Construct: gene MAPK7
# condition notes: concentration: 1 μM, replicates: in singlicate; n = 1
API: label(entry) gives label 1 if the entry's %Inh is strictly smaller than 2%; on equality or larger values it gives label 0.

# molecule, label
records = [
    ("CNC(=O)c1ccccc1Nc1nc(Nc2ccc(N3CCOCC3)cc2)ncc1Cl.Cl", "label 0"),
    ("O=C(Nc1cccc(-c2nn3ccccc3c2-c2ccnc(Nc3cccc(F)c3)n2)c1)c1c(F)ccc(F)c1Cl", "label 1"),
    ("COc1ccc(Nc2nccc(NCCNC(=O)c3cc4ccccc4s3)n2)cc1", "label 1"),
    ("O=C(NC1CCN(c2ccnc(Nc3ccc(F)cc3)n2)C1)c1cc2ccccc2s1 (centres unmarked)", "label 1"),
    ("O=c1[nH]cc(-c2ccc(N3CCOCC3)cc2)c2sc(-c3cn[nH]c3)cc12", "label 1"),
    ("Nc1ncnc2c1nc(-c1ccccc1)n2-c1ccccc1", "label 0"),
    ("O=C(Nc1cccc(-c2nn3ncccc3c2-c2ccnc(Nc3ccccc3)n2)c1)c1c(F)cccc1F", "label 0"),
]

Taken from paper PMC5540273.
